assay target: T1, soluble human FcRn (human, UniProt P55899 24-297; P61769 21-119, biotinylated (Sulfo-NHS-LC-Biotin) in the ELISA; amine-coupled to CM5 chip in SPR)
T1 construct: also called shFcRn; biotinylated shFcRn
assay summary: SPR, pH 7.4
Bridge positions count the residues as written; N and C are the ends. Ends that are not written are not given here.
readout label: Kd (nM)

These solved cases illustrate the format of a correct answer.
RFXTGXFGGLYPC (not fully specified; Pen at 3; His(Me) (mono-methylated histidine) at 6; disulfide; C-terminal amide) [Peptide No. 259]    380
RFXTGXFGGLYPC (not fully specified; Pen at 3; ThienylAla at 6; Sar at 9; NMeLeu at 10; disulfide; C-terminal amide) [Peptide No. 251]    3000

1. RFXTGXFGGLYPC (Pen at 3; 4GuanylPhe at 6; Sar at 9; NMeLeu at 10; disulfide; C-terminal amide) [Peptide No. 257]
2. RFXTGXFGGLYPC (Pen at 3; 4-PiperidylAla at 6; Sar at 9; NMeLeu at 10; disulfide; C-terminal amide) [Peptide No. 264]
3. RFXTGXFGGLYPC (Pen at 3; 3PyridylAla at 6; Sar at 9; NMeLeu at 10; disulfide; C-terminal amide) [Peptide No. 250]
4. RFXTGXFGGLYPC (Pen at 3; His(Me)2 (di-methylated histidine) at 6; disulfide; C-terminal amide) [Peptide No. 260]
Please put the entries in order of rising Kd. # the answer lists labels in the order requested
1, 3, 4, 2

1. QRFCTGHFGGLYPCNGP-NH2 (disulfide 4-14 (inferred)) [SEQ ID NO:1]
2. RFXTGKFGGLYPC (Pen at 3; Sar at 9; NMeLeu at 10; disulfide; C-terminal amide) [Peptide No. 255]
Compare the recorded Kd of 1 and 2 ; state which is larger. Kindly give the label for the entry you pick.
1

1. RFXTGRFGGLYPC (Pen at 3; Sar at 9; NMeLeu at 10; disulfide; C-terminal amide) [Peptide No. 256]
2. RFXTGXFGGLYPC (Pen at 3; 4-PyridylAla at 6; Sar at 9; NMeLeu at 10; disulfide; C-terminal amide) [Peptide No. 268]
Compare the recorded Kd of 1 and 2 ; state which is larger. Kindly give the label for the entry you pick.
1
